Kindly supply the reported % Inhibition EGFR values for the records listed here.
target: EGFR kinase (Homo sapiens, UniProt P00533); experiment: ELISA-based EGFR kinase inhibition assay; settings: 10.0 μM
Sequence (P00533 25-1210): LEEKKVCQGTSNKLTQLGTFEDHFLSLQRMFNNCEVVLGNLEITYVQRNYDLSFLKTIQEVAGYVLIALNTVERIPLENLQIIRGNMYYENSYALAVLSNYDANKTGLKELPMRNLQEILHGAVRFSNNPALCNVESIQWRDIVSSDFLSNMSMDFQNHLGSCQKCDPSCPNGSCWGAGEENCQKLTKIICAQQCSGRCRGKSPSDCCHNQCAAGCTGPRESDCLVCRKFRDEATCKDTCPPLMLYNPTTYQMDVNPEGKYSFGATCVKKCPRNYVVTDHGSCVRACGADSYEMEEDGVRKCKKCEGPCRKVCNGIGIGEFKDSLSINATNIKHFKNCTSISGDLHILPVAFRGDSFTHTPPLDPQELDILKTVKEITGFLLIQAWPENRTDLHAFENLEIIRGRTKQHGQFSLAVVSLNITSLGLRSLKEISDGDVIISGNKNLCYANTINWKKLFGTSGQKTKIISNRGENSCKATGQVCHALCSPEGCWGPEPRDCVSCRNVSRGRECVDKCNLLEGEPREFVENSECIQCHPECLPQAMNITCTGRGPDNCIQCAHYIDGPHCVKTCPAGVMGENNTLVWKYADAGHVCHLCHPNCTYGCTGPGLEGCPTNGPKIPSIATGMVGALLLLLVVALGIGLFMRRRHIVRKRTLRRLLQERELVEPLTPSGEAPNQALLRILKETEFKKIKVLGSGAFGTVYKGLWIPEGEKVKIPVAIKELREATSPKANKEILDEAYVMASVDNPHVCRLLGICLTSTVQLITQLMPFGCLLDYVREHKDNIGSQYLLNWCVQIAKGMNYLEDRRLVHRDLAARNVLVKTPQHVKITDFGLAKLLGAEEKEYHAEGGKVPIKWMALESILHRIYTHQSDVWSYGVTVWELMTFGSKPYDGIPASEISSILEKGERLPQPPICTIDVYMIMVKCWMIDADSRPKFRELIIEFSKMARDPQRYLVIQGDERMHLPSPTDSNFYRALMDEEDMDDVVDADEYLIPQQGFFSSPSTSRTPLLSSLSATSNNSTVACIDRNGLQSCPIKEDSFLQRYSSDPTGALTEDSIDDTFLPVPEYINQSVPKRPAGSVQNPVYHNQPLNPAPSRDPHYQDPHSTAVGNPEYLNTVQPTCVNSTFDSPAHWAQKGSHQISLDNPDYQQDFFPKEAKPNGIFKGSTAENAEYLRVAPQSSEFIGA
Only the number, expressed in %, is required.

Request: Quick one: % Inhibition EGFR of Cc1ccc(C2=NN(c3ccccc3)C(c3ccc(OC4CCCC4)cc3)C2)cc1 (stereo not shown) ?
Response: 64.88

Request: Which % Inhibition EGFR reading was recorded for the compound CN1CCC(=O)C(=Cc2ccc(OC3CCCC3)cc2)C1 ?
Response: 57.65

Request: Which measured % Inhibition EGFR value corresponds to CCOC(=O)C1=C(C)OC(N)=C(C#N)C1c1ccc(OC2CCCC2)cc1 (stereo not shown) ?
Response: 72.78

Request: For the compound CCN1CCC(=O)C(=Cc2ccc(OC3CCCC3)cc2)C1 , what % Inhibition EGFR is on record?
Response: 83.66

---

tested on: MCF-7 cells; assay: MTT antitumour assay, MCF-7; assay type: cell-based; conditions: MCF7, human breast adenocarcinoma cell line, mean ± SD, n = 3
recorded-endpoint: pIC50
Remember, pIC50 is on a log scale: it is -log10 of the molar concentration.

Request: May I ask what pIC50 has been recorded for Cc1ccc(-c2cc(-c3ccc(OC4CCCC4)cc3)c(C#N)c(N)n2)cc1 ?
Response: 4.01

Request: Given the entry CN(C)C/C=C/C(=O)Nc1cc2c(Nc3ccc(F)c(Cl)c3)ncnc2cc1O[C@H]1CCOC1 [Afatinib, reference compound] , report its measured pIC50.
Response: 5.15

Request: Sample O=C1CCCCC1=Cc1ccc(OC2CCCC2)cc1 — what was its pIC50?
Response: 4.31

Request: Dear colleague, I am looking for the recorded pIC50 of the following compound: O=C(O)c1cc(C=Cc2ccc(OC3CCCC3)cc2)nc2ccc(F)cc12 [12b]
Response: 4.32

Request: // pIC50 lookup, key: Cc1ccc(C2=NOC(c3ccc(OC4CCCC4)cc3)C2)cc1 (centres unmarked)
Response: 4.23

---

Provide the reported inhibition at 2.5 µM of each item.
biological target: EGFR kinase (Homo sapiens, UniProt P00533); test: ELISA-based EGFR kinase inhibition assay; settings: read-out: % Inhibition EGFR, 2.5 μM
State just the number; it will be interpreted in %.

Request: What does the record list as inhibition at 2.5 µM for CCN1CCC(=O)C(=Cc2ccc(OC3CCCC3)cc2)C1 ?
Response: 64.4

Request: Any idea what its inhibition at 2.5 µM is? The molecule is CN1CCC(=O)C(=Cc2ccc(OC3CCCC3)cc2)C1
Response: 44.4

Request: If you can, please state the reported inhibition at 2.5 µM value of CCOC(=O)C1=C(C)OC(N)=C(C#N)C1c1ccc(OC2CCCC2)cc1 (stereo not shown) .
Response: 52.9

Request: Which inhibition at 2.5 µM is reported for this molecule? Cc1ccc(C2=NN(c3ccccc3)C(c3ccc(OC4CCCC4)cc3)C2)cc1 (stereo not shown)
Response: 50.5

---

biological target: EGFR kinase (Homo sapiens); assay: ELISA-based EGFR kinase inhibition assay; conditions: 5.0 μM
Assign % Inhibition EGFR to each entry below.
State just the number; it will be interpreted in %.

Request: Param item = CCOC(=O)C1=C(C)OC(N)=C(C#N)C1c1ccc(OC2CCCC2)cc1 (stereo not shown) ; retrieve measured % Inhibition EGFR.
Response: 65.98

Request: Entry CCN1CCC(=O)C(=Cc2ccc(OC3CCCC3)cc2)C1 has what % Inhibition EGFR?
Response: 76.71

Request: Report % Inhibition EGFR for CN1CCC(=O)C(=Cc2ccc(OC3CCCC3)cc2)C1 please.
Response: 50.34

Request: Value lookup for % Inhibition EGFR; key = Cc1ccc(C2=NN(c3ccccc3)C(c3ccc(OC4CCCC4)cc3)C2)cc1 (stereo not shown)
Response: 60.72

---

Assign % Inhibition EGFR to each entry below.
molecular target: EGFR kinase (Homo sapiens, UniProt P00533); experiment: ELISA-based EGFR kinase inhibition assay; conditions: 0.625 μM
// return numeric value only (unit: %, not printed)

Request: Entry CCN1CCC(=O)C(=Cc2ccc(OC3CCCC3)cc2)C1 [6b] : reported % Inhibition EGFR = ?
Response: 55.33

Request: # query: % Inhibition EGFR of entry CN1CCC(=O)C(=Cc2ccc(OC3CCCC3)cc2)C1 [6a]
Response: 26.84

Request: So what's the measured % Inhibition EGFR for this one? Cc1ccc(C2=NN(c3ccccc3)C(c3ccc(OC4CCCC4)cc3)C2)cc1 (stereo not shown) [8b]
Response: 43.85

Request: Which % Inhibition EGFR value is on record for CCOC(=O)C1=C(C)OC(N)=C(C#N)C1c1ccc(OC2CCCC2)cc1 (stereo not shown) [compound 7] ?
Response: 43.27

---

tested on: HepG2 cells; test: MTT antitumour assay, HepG2; assay type: cell-based; settings: human hepato-cellular carcinoma cell line, mean ± SD, n = 3
recorded-endpoint: IC50
Answer with the figure and its unit, nothing else.

Request: Query the reported IC50 for HepG2 cells; item: O=C1CCCCC1=Cc1ccc(OC2CCCC2)cc1
Response: 55.4 µM

Request: Look up IC50 with HepG2 cells for this compound: O=c1[nH]cc(F)c(=O)[nH]1 [5-FU, 5-fluorouracil, reference compound]
Response: 7.9 µM

Request: Provide value of IC50 for this record tested with HepG2 cells: CN(C)C/C=C/C(=O)Nc1cc2c(Nc3ccc(F)c(Cl)c3)ncnc2cc1O[C@H]1CCOC1 [Afatinib, reference compound]
Response: 5.4 µM

Request: // map CN1CCC(=O)C(=Cc2ccc(OC3CCCC3)cc2)C1 to recorded IC50 (system: HepG2 cells)
Response: 15.9 µM

Request: Give recorded IC50 with HepG2 cells for the following compound: Cc1ccc(C2=NNC(c3ccc(OC4CCCC4)cc3)C2)cc1 (centres unmarked)
Response: 18.9 µM

---

target: EGFR kinase (Homo sapiens, UniProt P00533); assay: ELISA-based EGFR kinase inhibition assay; details: sample at 0.15uM; duplicate wells; standards in ng/ml; cont 134.9
Would you mind telling me the reported Conc. (Average), ELISA read-out of each entry?
Provide a numeric answer; units are not to be included.

Request: # Conc. (Average), ELISA read-out lookup, item CCN1CCC(=O)C(=Cc2ccc(OC3CCCC3)cc2)C1 [6b]
Response: 99.12

Request: Param item = Cc1ccc(C2=NN(c3ccccc3)C(c3ccc(OC4CCCC4)cc3)C2)cc1 (stereo not shown) [8b] ; retrieve measured Conc. (Average), ELISA read-out.
Response: 125.5

Request: Reported Conc. (Average), ELISA read-out for CCOC(=O)C1=C(C)OC(N)=C(C#N)C1c1ccc(OC2CCCC2)cc1 (stereo not shown) [compound 7] : what is it?
Response: 123.8

Request: I have this compound here, CN1CCC(=O)C(=Cc2ccc(OC3CCCC3)cc2)C1 [6a] , and I need its recorded Conc. (Average), ELISA read-out.
Response: 125.9

---

biological target: EGFR kinase (Homo sapiens); assay: ELISA-based EGFR kinase inhibition assay; conditions: read-out: % Inhibition EGFR, 0.15 μM
Would you kindly list inhibition at 0.15 µM for each of these compounds?

Request: Any idea what inhibition at 0.15 µM came out for CCOC(=O)C1=C(C)OC(N)=C(C#N)C1c1ccc(OC2CCCC2)cc1 (stereo not shown) on EGFR kinase (Homo sapiens)?
Response: 8.23%

Request: Entry CCN1CCC(=O)C(=Cc2ccc(OC3CCCC3)cc2)C1 , system EGFR kinase (Homo sapiens): what inhibition at 0.15 µM was measured?
Response: 26.5%

Request: Look up inhibition at 0.15 µM with EGFR kinase (Homo sapiens) for this compound: Cc1ccc(C2=NN(c3ccccc3)C(c3ccc(OC4CCCC4)cc3)C2)cc1 (stereo not shown)
Response: 6.97%

Request: Under EGFR kinase (Homo sapiens): inhibition at 0.15 µM value of CN1CCC(=O)C(=Cc2ccc(OC3CCCC3)cc2)C1 ?
Response: 6.67%

---

target: UniProt P00533; assay: ELISA-based EGFR kinase inhibition assay; conditions: sample at 10uM; duplicate wells; standards in ng/ml; cont 134.9
recorded-endpoint: Conc. (Average), ELISA read-out

Request: UniProt P00533 / Conc. (Average), ELISA read-out / CN1CCC(=O)C(=Cc2ccc(OC3CCCC3)cc2)C1 : value?
Response: 57.13

Request: Requested read-out Conc. (Average), ELISA read-out, target or system UniProt P00533, entry Cc1ccc(C2=NN(c3ccccc3)C(c3ccc(OC4CCCC4)cc3)C2)cc1 (stereo not shown)
Response: 47.37

Request: Tell me reported Conc. (Average), ELISA read-out for CCN1CCC(=O)C(=Cc2ccc(OC3CCCC3)cc2)C1 , tested with UniProt P00533.
Response: 22.04

Request: Notebook entry, UniProt P00533 assay: Conc. (Average), ELISA read-out of CCOC(=O)C1=C(C)OC(N)=C(C#N)C1c1ccc(OC2CCCC2)cc1 (stereo not shown) = ?
Response: 36.71
